System: Saccharomyces cerevisiae
Assay: checkerboard drug interaction (FICI, MICc);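 note: simplified diagonal checkerboard screen pairing antifungals with FPPS inhibitors, FICI calculated under the Loewe additivity model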
Format: cell-based
Conditions: MIC-MICc fold decrease of the inhibitor, with fluconazole
measured parameter: INH FD (FLC:INH)

### Prompt Entry CCCCCCCCCN1CCC[C@H]1C(=O)N[C@H](CC(=O)OC)C(=O)OC [dmPDA9] , system Saccharomyces cerevisiae: what INH FD (FLC:INH) was measured?
### Response 1

### Prompt Now the same for CCCCCCCCCCCCN1CCC[C@H]1C(=O)N[C@@H](CC(=O)OC)C(=O)OC [dmPLA12]
### Response 2

### Prompt Now the same for CCCCCCCCCCCN1CCC[C@H]1C(=O)N[C@H](CC(=O)OC)C(=O)OC [dmPDA11]
### Response -4

### Prompt Now the same for CCCCCCCCCCN1CCC[C@H]1C(=O)N[C@H](CC(=O)OC)C(=O)OC [dmPDA10]
### Response -2

### Prompt Now the same for CCCCCCCCCCCN1CCC[C@H]1C(=O)N[C@H](CC(=O)O)C(=O)O [PDA11]
### Response 4

### Prompt Now the same for CCCCCCCCCCCCN1CCC[C@H]1C(=O)N[C@H](CC(=O)O)C(=O)O [PDA12]
### Response 4

### Prompt Now the same for CCCCCCCCCN1CCC[C@H]1C(=O)N[C@H](CC(=O)O)C(=O)O [PDA9]
### Response 4

### Prompt Now the same for CCCCCCCCCCCCN1CCC[C@H]1C(=O)N[C@H](CC(=O)OC)C(=O)OC [dmPDA12]
### Response 2

### Prompt Now the same for CCCCCCCCCCCN1CCC[C@H]1C(=O)N[C@@H](CC(=O)OC)C(=O)OC [dmPLA11]
### Response 2

----------
System: Cryptococcus neoformans
Assay: checkerboard drug interaction (FICI, MICc)
Assay type: cell-based
Conditions: C. neoformans; ITR:INH combination; fold decrease of ITR MIC
measured parameter: ITR FD (MIC-MICc fold decrease)
Please reply with the number alone, leaving off any unit.

### Prompt What value of ITR FD (MIC-MICc fold decrease) has been recorded for this entry: CCCCCCCCCN1CCC[C@H]1C(=O)N[C@H](CC(=O)OC)C(=O)OC [dmPDA9]
### Response -4

### Prompt Now the same for CCCCCCCCCN1CCC[C@H]1C(=O)N[C@@H](CC(=O)OC)C(=O)OC [dmPLA9]
### Response -4

### Prompt Now the same for CCCCCCCCCCCCN1CCC[C@H]1C(=O)N[C@H](CC(=O)O)C(=O)O [PDA12]
### Response -2

----------
For reference, MIC measured on Saccharomyces cerevisiae:

### Prompt What value of MIC has been recorded for this entry: "CCCCCCCCCCCCN1CCC[C@H]1C(=O)N[C@H](CC(=O)O)C(=O)O"
### Response > 128 µg/mL

### Prompt Now the same for O=P(O)(O)C(O)(Cn1ccnc1)P(=O)(O)O [ZOL, zoledronate]
### Response > 128 µg/mL

### Prompt Now the same for "CCCCCCCCCCCN1CCC[C@H]1C(=O)N[C@H](CC(=O)O)C(=O)O"
### Response > 128 µg/mL

----------
Tested on: Cryptococcus neoformans
Assay: MIC/MFC broth microdilution (CLSI);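 for MFC: susceptibility testing followed the CLSI M27-Ed4 broth microdilution document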
Conditions: Cryptococcus neoformans
measured parameter: MFC

### Prompt What value of MFC has been recorded for this entry: "CCCCCCCCCCCN1CCC[C@H]1C(=O)N[C@@H](CC(=O)O)C(=O)O"
### Response > 128 µg/mL

### Prompt Now the same for "CCCCCCCCCCCN1CCC[C@H]1C(=O)N[C@H](CC(=O)O)C(=O)O"
### Response > 128 µg/mL

### Prompt Now the same for "CCCCCCCCCCCCN1CCC[C@H]1C(=O)N[C@H](CC(=O)O)C(=O)O"
### Response > 128 µg/mL

Reference source: paper PMC12892976
